test system: RPMI-8226 leukemia; assay: NCI tumour cell line growth inhibition, 48 h
The recorded TGI of each item maps onto one of these classes: bottom end = under 10 µM, midrange = from 10 µM up to 50 µM, top end = 50 µM and over

[
  {
    "MOLECULE": "O=C(CCN1CCCN(c2cnc3ccccc3n2)CC1)c1csc2ccccc12",
    "CLASS NAME": "midrange"
  },
  {
    "MOLECULE": "Cc1c(Cl)c(C)c(Cl)c(O)c1Cl",
    "CLASS NAME": "top end"
  },
  {
    "MOLECULE": "C=C(C)COc1cc(NC(=S)OC(C)C)ccc1Cl",
    "CLASS NAME": "top end"
  },
  {
    "MOLECULE": "O=C(CC(=O)N1N=C(N(c2ccccc2)c2ccccc2)CC1c1ccccc1)Nc1cccc(Cl)c1 (configuration not stated)",
    "CLASS NAME": "top end"
  },
  {
    "MOLECULE": "CC(=O)ON=C1C=CC(=C(C#N)c2ccccc2)C=C1",
    "CLASS NAME": "bottom end"
  },
  {
    "MOLECULE": "CC[As](CC)SCC1OC(OC(C)=O)C(OC(C)=O)C(OC(C)=O)C1OC(C)=O (configuration not stated)",
    "CLASS NAME": "midrange"
  },
  {
    "MOLECULE": "COC(=O)c1c2c(c(C)[n+]([O-])c1C)C(=O)C(NCc1ccc(O)cc1)=CC2=O",
    "CLASS NAME": "bottom end"
  },
  {
    "MOLECULE": "CC(C)CC1N=C(OCc2ccccc2)OC1=O (configuration not stated)",
    "CLASS NAME": "top end"
  },
  {
    "MOLECULE": "Cc1ccc(S(=O)(=O)Nn2c(S)c(C#N)c(-c3ccc(Cl)cc3)c(C#N)c2=O)cc1",
    "CLASS NAME": "top end"
  },
  {
    "MOLECULE": "COc1ccc2c(ccc3c(C(=O)NCCCN(C)CCCNC(=O)c4cn(C)c5c4ccc4cc(OC)ccc45)cn(C)c32)c1",
    "CLASS NAME": "bottom end"
  },
  {
    "MOLECULE": "S=C(S)NCCN1CCNCC1",
    "CLASS NAME": "midrange"
  },
  {
    "MOLECULE": "Cc1ccccc1-n1c(CCl)nc2ccc(Br)cc2c1=O",
    "CLASS NAME": "top end"
  },
  {
    "MOLECULE": "COc1cc2c(cc1-c1coc3cc(O)ccc3c1=O)OCO2",
    "CLASS NAME": "top end"
  },
  {
    "MOLECULE": "CC/C=C\\C=C/C(=O)N/C=C/CCC",
    "CLASS NAME": "top end"
  },
  {
    "MOLECULE": "Cc1cc(-c2cc(OC(=O)c3ccccc3)ccc2Cl)cc2nnc(Nc3ccc(OCCN4CCCC4)cc3)nc12",
    "CLASS NAME": "bottom end"
  },
  {
    "MOLECULE": "O=c1c2cc([N+](=O)[O-])ccc2n2n1CCCCC2",
    "CLASS NAME": "top end"
  },
  {
    "MOLECULE": "CC(=O)Nc1ccc(C2=N/C(=C\\c3ccc(Cl)cc3)C(=O)O2)cc1",
    "CLASS NAME": "top end"
  },
  {
    "MOLECULE": "COc1cc(C(=O)NN=C2c3ccccc3-c3ccccc32)cc(OC)c1OC",
    "CLASS NAME": "top end"
  },
  {
    "MOLECULE": "NC(CSCSCC(N)C(=O)O)C(=O)O (configuration not stated)",
    "CLASS NAME": "top end"
  },
  {
    "MOLECULE": "Cc1cc(C)c(/C=N/NS(=O)(=O)c2ccccc2)c(C)c1",
    "CLASS NAME": "top end"
  },
  {
    "MOLECULE": "C#CCNC(=O)CC[C@@H](C)[C@H]1CC[C@H]2[C@@H]3CC[C@@H]4CC(=O)CC[C@]4(C)[C@H]3CC[C@]12C",
    "CLASS NAME": "midrange"
  },
  {
    "MOLECULE": "O=C(CN1CCN(C(=O)c2ccco2)CC1)Nc1ccc(Cl)cc1C(=O)c1ccccc1Cl",
    "CLASS NAME": "midrange"
  }
]

Values were extracted from PubChem BioAssay (NCI).
